Could you please report measured kinase still bound, per cent of control for the items listed next?
- assayed system: PIK3CB (human)
- measurement protocol: KINOMEscan competition binding
- assay setup: compound 10.0 µM
Units required after the number.

For the compound "NC(=O)Nc1cc(-c2cccc(F)c2)sc1C(=O)N[C@@H]1CCCNC1" , what kinase still bound, per cent of control is on record?
68%

For the compound "Cc1n[nH]c2ccc(-c3cncc(OC[C@@H](N)Cc4c[nH]c5ccccc45)c3)cc12" , what kinase still bound, per cent of control is on record?
100%

For the compound "COCC(=O)NC/C=C/c1ccc2ncnc(Nc3ccc(Oc4ccc(C)nc4)c(C)c3)c2c1" , what kinase still bound, per cent of control is on record?
100%

For the compound "C[C@@H](Oc1cc(-c2cnn(C3CCNCC3)c2)cnc1N)c1c(Cl)ccc(F)c1Cl" , what kinase still bound, per cent of control is on record?
99%

For the compound "O=c1cc(N2CCOCC2)oc2c(-c3cccc4c3sc3ccccc34)cccc12" , what kinase still bound, per cent of control is on record?
0%

Source of measurements: the kinase profiling compilation of Christmann-Franck et al. (2016)
